src = the NIST ThermoML archive (doi:10.1021/je500513b)

Provide the reported surface tension liquid-gas of each item.
# test_details: mn = molality of the nth substance listed, in mol/kg
# settings: 298.15 K, Pendant drop shape, m1 = 0.0001
± gives the expanded uncertainty stated by the source.
Param answer (str): number followed by unit.

Use these answered entries as a reference point.
Would you mind telling me what surface tension liquid-gas value was observed for CCCCCCCCCCCCCC[N+](C)(C)CCC[N+](C)(C)CCCCCCCCCCCCCC.[Br-].[Br-] + O ? 35.52 ± 2 mN/m

Could you do the same for CCCCCCCCCCCC[N+](C)(C)CCCC[N+](C)(C)CCCCCCCCCCCC.[Br-].[Br-] + O , please? 60.26 ± 1.8 mN/m

Could you do the same for CCCCCCCCCCCCCC[N+](C)(C)CCCC[N+](C)(C)CCCCCCCCCCCCCC.[Br-].[Br-] + O , please? 42.13 ± 2.2 mN/m

Could you do the same for CCCCCCCCCCCCCC[N+](C)(C)CCCCCC[N+](C)(C)CCCCCCCCCCCCCC.[Br-].[Br-] + O , please? 42.1 ± 0.87 mN/m

Could you do the same for CCCCCCCCCCCC[N+](C)(C)CCC[N+](C)(C)CCCCCCCCCCCC.[Br-].[Br-] + O , please? 60.28 ± 2.1 mN/m

Now let's try a different one.
Would you mind telling me what surface tension liquid-gas value was observed for CCCCCCCCCCCC[N+](C)(C)CCCCCC[N+](C)(C)CCCCCCCCCCCC.[Br-].[Br-] + O ? 61.45 ± 2 mN/m

----------
# test_details: mn = molality of the nth substance listed, in mol/kg
# settings: 298.15 K, Pendant drop shape, m1 = 0.0002
Please use fulfilled whenever surface tension liquid-gas is not below 40 mN/m, and not fulfilled whenever it is.

Dear colleague, could you confirm whether CCCCCCCCCCCC[N+](C)(C)CCC[N+](C)(C)CCCCCCCCCCCC.[Br-].[Br-] + O has surface tension liquid-gas at or above 40 mN/m? fulfilled

Could you do the same for CCCCCCCCCCCC[N+](C)(C)CCCC[N+](C)(C)CCCCCCCCCCCC.[Br-].[Br-] + O , please? fulfilled

Could you do the same for CCCCCCCCCCCCCC[N+](C)(C)CCC[N+](C)(C)CCCCCCCCCCCCCC.[Br-].[Br-] + O , please? not fulfilled

Could you do the same for CCCCCCCCCCCC[N+](C)(C)CCCCCC[N+](C)(C)CCCCCCCCCCCC.[Br-].[Br-] + O , please? fulfilled

Alright, here's another molecule for you.
Dear colleague, could you confirm whether CCCCCCCCCCCCCC[N+](C)(C)CCCC[N+](C)(C)CCCCCCCCCCCCCC.[Br-].[Br-] + O has surface tension liquid-gas at or above 40 mN/m? not fulfilled

----------
# test_details: mn = molality of the nth substance listed, in mol/kg
# settings: 298.15 K, Pendant drop shape, m1 = 0.0004
readout_name: surface tension liquid-gas (mN/m)
Numbers only, in mN/m.

Use these answered entries as a reference point.
Would you mind telling me what surface tension liquid-gas value was observed for CCCCCCCCCCCC[N+](C)(C)CCCCCC[N+](C)(C)CCCCCCCCCCCC.[Br-].[Br-] + O ? 47.33

Could you do the same for CCCCCCCCCCCCCC[N+](C)(C)CCCCCC[N+](C)(C)CCCCCCCCCCCCCC.[Br-].[Br-] + O , please? 38.4

Could you do the same for CCCCCCCCCCCC[N+](C)(C)CCC[N+](C)(C)CCCCCCCCCCCC.[Br-].[Br-] + O , please? 41.67

New cases:
Would you mind telling me what surface tension liquid-gas value was observed for CCCCCCCCCCCC[N+](C)(C)CCCC[N+](C)(C)CCCCCCCCCCCC.[Br-].[Br-] + O ? 47.36
